Test: NOAEL (no-observed-adverse-effect-level)
Conditions: in vivo
readout_label: NOAEL
Note to self: number, then unit, no commentary.

Asked: So what's the measured NOAEL for this one? CCNc1cc2oc3cc(=[N+](CCOCCOCCOC)CCOCCOCCOC)ccc-3nc2cc1C
Given back: 30 mg/kg

Asked: So what's the measured NOAEL for this one? CCNc1cc2oc3cc(=[N+](CC)CC)ccc-3nc2cc1C [Comparative Example No. 1, reference compound]
Given back: 3 mg/kg

Asked: So what's the measured NOAEL for this one? CCNc1cc2oc3c/c(=[N+](\CC)CCCS(=O)(=O)[O-])ccc-3nc2cc1C
Given back: 30 mg/kg

----------
Listing: solubility of selected molecules
Assay: Solubility testing in ultrapure water
Conditions: kinetic from dmso stock

molecule	readout_label	value_reported
CCNc1cc2oc3c/c(=[N+](\CC)CCCS(=O)(=O)[O-])ccc-3nc2cc1C	solubility	> 5000 µg/mL
CCNc1cc2oc3cc(=[N+](CC)CC)ccc-3nc2cc1C [Comparative Example No. 1, reference compound]	solubility	100 µg/mL

Asked: So what's the measured solubility for this one? CCNc1cc2oc3cc(=[N+](CCOCCOCCOC)CCOCCOCCOC)ccc-3nc2cc1C
Given back: > 5000 µg/mL
